Quick reference for pIC50 among some molecules
target: GTPase KRas (Homo sapiens, UniProt P01116, G12C); test: Inhibition of BODIPY loaded KRAS G12C mutant (unknown origin) assessed as inhibition of GDP-GTP exchange rate preincubated for 2 hrs and measured after 2 hrs in presence of SOS1-GppNHp mixture by BODIPY fluorescence based PHERAstar plate reader analysis
Sequence (P01116 whole entry G12C): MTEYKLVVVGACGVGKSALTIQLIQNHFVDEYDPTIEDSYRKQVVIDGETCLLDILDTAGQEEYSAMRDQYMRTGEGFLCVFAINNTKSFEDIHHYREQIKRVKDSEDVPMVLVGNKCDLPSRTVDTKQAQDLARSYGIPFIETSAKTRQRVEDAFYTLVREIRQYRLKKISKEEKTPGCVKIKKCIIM
pIC50: −log10 of the molar value.

Example results:
C=CC(=O)N1CC(F)(Cn2c(=O)c(=O)n(-c3c(C)ccnc3C(C)C)c3nc(-c4c(Cl)ccc5c4OCO5)c(Cl)cc32)C1    ≥ 7.00
C=CC(=O)N1CC(F)(Cn2c(=O)c(=O)n(-c3c(C)ccnc3C(C)C)c3nc(-c4c(N)cccc4F)c(Cl)cc32)C1    ≥ 7.00
C=CC(=O)N1CC(F)(Cn2c(=O)c(=O)n(-c3c(C)ccnc3C(C)C)c3nc(-c4ccccc4F)c(Cl)cc32)C1    ≥ 7.00

Let me know recorded pIC50 for C=CC(=O)N1CC(F)(Cn2c(=O)c(=O)n(-c3c(C)ccnc3C(C)C)c3nc(-c4c(F)ccc(F)c4O)c(Cl)cc32)C1 , thanks. ≥ 7.00

Give recorded pIC50. C=CC(=O)N1CC(F)(Cn2c(=O)c(=O)n(-c3c(C(C)C)cccc3C(C)C)c3nc(-c4cc(O)cc5ccccc45)c(Cl)cc32)C1 ≥ 7.00

Please give the documented pIC50 of C=CC(=O)N1CC(F)(Cn2c(=O)c(=O)n(-c3c(C)ccnc3C(C)C)c3nc(-c4cccc(Cl)c4Cl)c(Cl)cc32)C1 ≥ 7.00
